Attribution: paper PMC10611619

TEST PROTOCOL: Biodistribution in Jurkat xenograft-bearing mice, 1 h p.i.
Type: in vivo
MEASUREMENT PARAMETERS: female, CB17/SCID, mouse, liver, iv, total radioactivity, n = 5, mean ± SD, read-out: Biodistribution Liver
Where a SMILES comes first, the peptide text is derived from it. Side-chain parts run from the residue outwards. [ ]: non-standard residue; d: D form. The star is where a group is joined. 2Nal = N[C@@H](Cc1ccc2ccccc2c1)C(=O)O; dNMeOrn = CN[C@H](CCCN)C(=O)O; HYNIC = NNc1ccc(C(=O)*)cn1; 4Abz = Nc1ccc(C(=O)O)cc1; dDap = NC[C@@H](N)C(=O)O
READOUT NAME: tissue uptake at 1 h (%ID/g)
Respond with the bare value in %ID/g.

For the compound C[C@@H](NC(=O)[C@@H](CCCNC(=N)N)NC(=O)[C@@H](CN)NC(=O)c1ccc(NN)nc1)C(=O)Nc1ccc(C(=O)NCCC[C@@H]2C(=O)N[C@@H](CCCNC(=N)N)C(=O)N[C@@H](Cc3ccc4ccccc4c3)C(=O)NCC(=O)N[C@H](Cc3ccc(O)cc3)C(=O)N2C)cc1 [[^99mTc]Tc-HYNIC-L6-CPCR4, metal not drawn] (cyclo([dY][dNMeOrn]([4Abz-dA-dR-dDap-HYNIC])R[2Nal]G)) , what tissue uptake at 1 h is on record?
2.6

* * *

TEST PROTOCOL: Biodistribution in Jurkat xenograft-bearing mice, 1 h p.i.
Type: in vivo
MEASUREMENT PARAMETERS: female, CB17/SCID, mouse, stomach, iv, total radioactivity, n = 5, mean ± SD, read-out: Biodistribution Stomach
Where a SMILES comes first, the peptide text is derived from it. Side-chain parts run from the residue outwards. [ ]: non-standard residue; d: D form. The star is where a group is joined. 2Nal = N[C@@H](Cc1ccc2ccccc2c1)C(=O)O; dNMeOrn = CN[C@H](CCCN)C(=O)O; HYNIC = NNc1ccc(C(=O)*)cn1; 4Abz = Nc1ccc(C(=O)O)cc1; dDap = NC[C@@H](N)C(=O)O
READOUT NAME: tissue uptake at 1 h (%ID/g)
Respond with the bare value in %ID/g.

For the compound C[C@@H](NC(=O)[C@@H](CCCNC(=N)N)NC(=O)[C@@H](CN)NC(=O)c1ccc(NN)nc1)C(=O)Nc1ccc(C(=O)NCCC[C@@H]2C(=O)N[C@@H](CCCNC(=N)N)C(=O)N[C@@H](Cc3ccc4ccccc4c3)C(=O)NCC(=O)N[C@H](Cc3ccc(O)cc3)C(=O)N2C)cc1 [[^99mTc]Tc-HYNIC-L6-CPCR4, metal not drawn] (cyclo([dY][dNMeOrn]([4Abz-dA-dR-dDap-HYNIC])R[2Nal]G)) , what tissue uptake at 1 h is on record?
2

* * *

TEST PROTOCOL: Biodistribution in Jurkat xenograft-bearing mice, 1 h p.i.
Type: in vivo
MEASUREMENT PARAMETERS: female, CB17/SCID, mouse, spleen, iv, total radioactivity, n = 5, mean ± SD, read-out: Biodistribution Spleen
Where a SMILES comes first, the peptide text is derived from it. Side-chain parts run from the residue outwards. [ ]: non-standard residue; d: D form. The star is where a group is joined. 2Nal = N[C@@H](Cc1ccc2ccccc2c1)C(=O)O; dNMeOrn = CN[C@H](CCCN)C(=O)O; HYNIC = NNc1ccc(C(=O)*)cn1; 4Abz = Nc1ccc(C(=O)O)cc1; dDap = NC[C@@H](N)C(=O)O
READOUT NAME: tissue uptake at 1 h (%ID/g)
Respond with the bare value in %ID/g.

For the molecule C[C@@H](NC(=O)[C@@H](CCCNC(=N)N)NC(=O)[C@@H](CN)NC(=O)c1ccc(NN)nc1)C(=O)Nc1ccc(C(=O)NCCC[C@@H]2C(=O)N[C@@H](CCCNC(=N)N)C(=O)N[C@@H](Cc3ccc4ccccc4c3)C(=O)NCC(=O)N[C@H](Cc3ccc(O)cc3)C(=O)N2C)cc1 [[^99mTc]Tc-HYNIC-L6-CPCR4, metal not drawn] (cyclo([dY][dNMeOrn]([4Abz-dA-dR-dDap-HYNIC])R[2Nal]G)) , what tissue uptake at 1 h is on record?
2.4

* * *

TEST PROTOCOL: Biodistribution in Jurkat xenograft-bearing mice, 1 h p.i.
Assay type: in vivo
MEASUREMENT PARAMETERS: female, CB17/SCID, mouse, femur, iv, total radioactivity, n = 5, mean ± SD, read-out: Biodistribution Femur
Where a SMILES comes first, the peptide text is derived from it. Side-chain parts run from the residue outwards. [ ]: non-standard residue; d: D form. The star is where a group is joined. 2Nal = N[C@@H](Cc1ccc2ccccc2c1)C(=O)O; dNMeOrn = CN[C@H](CCCN)C(=O)O; HYNIC = NNc1ccc(C(=O)*)cn1; 4Abz = Nc1ccc(C(=O)O)cc1; dDap = NC[C@@H](N)C(=O)O
READOUT NAME: tissue uptake at 1 h (%ID/g)
Respond with the bare value in %ID/g.

For the molecule C[C@@H](NC(=O)[C@@H](CCCNC(=N)N)NC(=O)[C@@H](CN)NC(=O)c1ccc(NN)nc1)C(=O)Nc1ccc(C(=O)NCCC[C@@H]2C(=O)N[C@@H](CCCNC(=N)N)C(=O)N[C@@H](Cc3ccc4ccccc4c3)C(=O)NCC(=O)N[C@H](Cc3ccc(O)cc3)C(=O)N2C)cc1 [[^99mTc]Tc-HYNIC-L6-CPCR4, metal not drawn] (cyclo([dY][dNMeOrn]([4Abz-dA-dR-dDap-HYNIC])R[2Nal]G)) , what tissue uptake at 1 h is on record?
0.8

* * *

TEST PROTOCOL: Biodistribution in Jurkat xenograft-bearing mice, 1 h p.i.
Assay type: in vivo
MEASUREMENT PARAMETERS: female, CB17/SCID, mouse, intestines, iv, total radioactivity, n = 5, mean ± SD, read-out: Biodistribution Intestines
Procedure: Female CB17/SCID mice bearing subcutaneous Jurkat human T cell lymphoma xenografts (for more detailed information, see supplemental material) were injected intravenously with the respective ^99mTc-labeled tracer (5–20 MBq, 0.1–0.2 nmol/mouse) under isofluorane anesthesia and were sacrificed at 1 h post-injection (p.i.). […]
Where a SMILES comes first, the peptide text is derived from it. Side-chain parts run from the residue outwards. [ ]: non-standard residue; d: D form. The star is where a group is joined. 2Nal = N[C@@H](Cc1ccc2ccccc2c1)C(=O)O; dNMeOrn = CN[C@H](CCCN)C(=O)O; HYNIC = NNc1ccc(C(=O)*)cn1; 4Abz = Nc1ccc(C(=O)O)cc1; dDap = NC[C@@H](N)C(=O)O
READOUT NAME: tissue uptake at 1 h (%ID/g)
Respond with the bare value in %ID/g.

For the compound C[C@@H](NC(=O)[C@@H](CCCNC(=N)N)NC(=O)[C@@H](CN)NC(=O)c1ccc(NN)nc1)C(=O)Nc1ccc(C(=O)NCCC[C@@H]2C(=O)N[C@@H](CCCNC(=N)N)C(=O)N[C@@H](Cc3ccc4ccccc4c3)C(=O)NCC(=O)N[C@H](Cc3ccc(O)cc3)C(=O)N2C)cc1 [[^99mTc]Tc-HYNIC-L6-CPCR4, metal not drawn] (cyclo([dY][dNMeOrn]([4Abz-dA-dR-dDap-HYNIC])R[2Nal]G)) , what tissue uptake at 1 h is on record?
0.6

* * *

TEST PROTOCOL: Biodistribution in Jurkat xenograft-bearing mice, 1 h p.i.
Type: in vivo
MEASUREMENT PARAMETERS: female, CB17/SCID, mouse, muscle, iv, total radioactivity, n = 5, mean ± SD, read-out: Biodistribution Muscle
Where a SMILES comes first, the peptide text is derived from it. Side-chain parts run from the residue outwards. [ ]: non-standard residue; d: D form. The star is where a group is joined. 2Nal = N[C@@H](Cc1ccc2ccccc2c1)C(=O)O; dNMeOrn = CN[C@H](CCCN)C(=O)O; HYNIC = NNc1ccc(C(=O)*)cn1; 4Abz = Nc1ccc(C(=O)O)cc1; dDap = NC[C@@H](N)C(=O)O
READOUT NAME: tissue uptake at 1 h (%ID/g)
Respond with the bare value in %ID/g.

For the compound C[C@@H](NC(=O)[C@@H](CCCNC(=N)N)NC(=O)[C@@H](CN)NC(=O)c1ccc(NN)nc1)C(=O)Nc1ccc(C(=O)NCCC[C@@H]2C(=O)N[C@@H](CCCNC(=N)N)C(=O)N[C@@H](Cc3ccc4ccccc4c3)C(=O)NCC(=O)N[C@H](Cc3ccc(O)cc3)C(=O)N2C)cc1 [[^99mTc]Tc-HYNIC-L6-CPCR4, metal not drawn] (cyclo([dY][dNMeOrn]([4Abz-dA-dR-dDap-HYNIC])R[2Nal]G)) , what tissue uptake at 1 h is on record?
1.5

* * *

TEST PROTOCOL: Blood clearance / excretion in patients
Type: in vivo, human
MEASUREMENT PARAMETERS: human, whole blood, iv, read-out: plasma half-life, range
Where a SMILES comes first, the peptide text is derived from it. Side-chain parts run from the residue outwards. [ ]: non-standard residue; d: D form. The star is where a group is joined. 2Nal = N[C@@H](Cc1ccc2ccccc2c1)C(=O)O; dNMeOrn = CN[C@H](CCCN)C(=O)O; 4Abz = Nc1ccc(C(=O)O)cc1; X1 = NCCNCC(CNCCN)C(=O)*; dDap = NC[C@@H](N)C(=O)O
READOUT NAME: half-life

For the molecule C[C@@H](NC(=O)[C@@H](CCCNC(=N)N)NC(=O)[C@@H](CN)NC(=O)C(CNCCN)CNCCN)C(=O)Nc1ccc(C(=O)NCCC[C@@H]2C(=O)N[C@@H](CCCNC(=N)N)C(=O)N[C@@H](Cc3ccc4ccccc4c3)C(=O)NCC(=O)N[C@H](Cc3ccc(O)cc3)C(=O)N2C)cc1 [[^99mTc]Tc-N4-L6-CPCR4, [^99mTc]Tc-N4-dap-r-a-Abz-CPCR4, metal not drawn] (cyclo([dY][dNMeOrn]([4Abz-dA-dR-dDap-X1])R[2Nal]G)) , what half-life is on record?
15 to 25 min
